Value source: paper PMC4805166

# Test system: Pseudomonas syringae pv. syringae EPS94
# Type: cell-based
# run conditions: 48 h
# Description: The following plant pathogenic bacterial strains were used: Erwinia amylovora PMV6076 (Institut National de la Recherche Agronomique, Angers, France), Pseudomonas syringae pv. syringae EPS94 (Institut de Tecnologia Agroalimentària, Universitat de Girona, Spain) and Xanthomonas axonopodis pv. vesicatoria 2133–2 (Instituto Valenciano de Investigaciones Agrarias, Valencia, Spain). All bacteria were stored in Luria Bertani (LB) broth supplemented with glycerol (20%) and maintained at -80°C. […]
Where a SMILES comes first, the peptide text is derived from it. Side-chain parts run from the residue outwards. [ ]: non-standard residue; d: D form. The star is where a group is joined. Octanoyl = CCCCCCCC(=O)*; Hexanoyl = CCCCCC(=O)*
Let's look at some compounds and their measured MIC Pss.

Here is how some compounds turned out for MIC Pss.
Query string: Could you share which MIC Pss value was measured for CCCCCC(=O)NCCCC[C@@H]1NC(=O)[C@H](CCC(N)=O)NC(=O)[C@H](CC(C)C)NC(=O)[C@H](CCCCN)NC(=O)[C@H](CCCCN)NC(=O)[C@H](Cc2ccccc2)NC(=O)[C@H](CCCCN)NC(=O)[C@H](CCCCN)NC(=O)[C@H](CC(C)C)NC(=O)[C@H](CCCCN)NC1=O [BPC590] (cyclo(FKKLQK(Hexanoyl)KLKK)) ?
Result string: 6.2 to 12.5 µM

Query string: What value of MIC Pss has been reported for the following compound? CCCCCC(=O)NCCCC[C@@H]1NC(=O)[C@H](Cc2ccccc2)NC(=O)[C@H](CCCCN)NC(=O)[C@H](CCCCN)NC(=O)[C@H](CC(C)C)NC(=O)[C@H](CCCCN)NC(=O)[C@H](CCCCN)NC(=O)[C@H](CCC(N)=O)NC(=O)[C@H](CC(C)C)NC(=O)[C@H](CCCCN)NC1=O [BPC584, c(KKLKKFK(CO-nC5H11)KLQ)] (cyclo(FK(Hexanoyl)KLQKKLKK))
Result string: 12.5 to 25 µM

Query string: // returns reported MIC Pss for input CCCCCC(=O)N[C@@H](CCCCN)C(=O)N[C@@H](CC(C)C)C(=O)NCCCC[C@@H]1NC(=O)[C@H](CCCCN)NC(=O)[C@H](CC(C)C)NC(=O)[C@H](CCCCN)NC(=O)[C@H](CCCCN)NC(=O)[C@H](CCC(N)=O)NC(=O)[C@H](CC(C)C)NC(=O)[C@H](CCCCN)NC(=O)[C@H](CCCCN)NC(=O)[C@@H](Cc2ccccc2)NC1=O [BPC674, c(KKLKK(LK-CO-nC5H11)fKKLQ)] (cyclo(KKLKK([Leu-Lys-Hexanoyl])[dF]KKLQ))
Result string: 6.2 to 12.5 µM

Further cases:
Query string: Give the measured MIC Pss of CCCCCCCC(=O)NCCCC[C@@H]1NC(=O)[C@H](CCCCN)NC(=O)[C@H](CC(C)C)NC(=O)[C@H](CCCCN)NC(=O)[C@H](CCCCN)NC(=O)[C@H](CCC(N)=O)NC(=O)[C@H](CC(C)C)NC(=O)[C@H](CCCCN)NC(=O)[C@H](CCCCN)NC(=O)[C@@H](Cc2ccccc2)NC1=O [BPC668, c(KKLKK(CO-C7H15)fKKLQ)] (cyclo(KKLKK(Octanoyl)[dF]KKLQ)) .
Result string: 12.5 to 25 µM

Query string: Item CCCCCC(=O)NCCCC[C@@H]1NC(=O)[C@H](CC(C)C)NC(=O)[C@H](CCCCN)NC(=O)[C@H](CCCCN)NC(=O)[C@H](CCC(N)=O)NC(=O)[C@H](CC(C)C)NC(=O)[C@H](CCCCN)NC(=O)[C@H](CCCCN)NC(=O)[C@H](Cc2ccccc2)NC(=O)[C@H](CCCCN)NC1=O [BPC586, c(KKLK(CO-nC5H11)KFKKLQ)] (cyclo(FKKLQKKLK(Hexanoyl)K)) has what recorded MIC Pss?
Result string: 6.2 to 12.5 µM

----------
# Tested on: Erwinia amylovora PMV6076
# assay explanation: MIC, in vitro growth inhibition
# Format: cell-based
# run conditions: TSB, 25°C, 48 h, OD 600 nm; tested at 3.1, 6.2, 12.5, 25, 50 μM; three replicates, experiment repeated twice; MIC = lowest concentration with no growth
Where a SMILES comes first, the peptide text is derived from it. Side-chain parts run from the residue outwards. [ ]: non-standard residue; d: D form. The star is where a group is joined. Pentanoyl(4-Me) = CC(C)CCC(=O)*; Hexanoyl = CCCCCC(=O)*; Butyryl = CCCC(=O)*
observation type: MIC Ea

Query string: May I ask what MIC Ea has been recorded for CCCC(=O)NCCCC[C@H]1NC(=O)[C@H](CCCCN)NC(=O)[C@H](CC(C)C)NC(=O)[C@H](CCCCN)NC(=O)[C@H](CCCCN)NC(=O)[C@H](CCC(N)=O)NC(=O)[C@H](CC(C)C)NC(=O)[C@H](CCCCN)NC(=O)[C@H](CCCCN)NC(=O)[C@H](Cc2ccccc2)NC1=O [BPC702, c(KKLKk(CO-C3H7)FKKLQ)] (cyclo(FKKLQKKLK[dK](Butyryl))) ?
Result string: 25 to 50 µM

Query string: Look up MIC Ea for this compound: CCCCCC(=O)NCCCC[C@@H]1NC(=O)[C@H](CCC(N)=O)NC(=O)[C@H](CC(C)C)NC(=O)[C@H](CCCCN)NC(=O)[C@H](CCCCN)NC(=O)[C@H](Cc2ccccc2)NC(=O)[C@H](CCCCN)NC(=O)[C@H](CCCCN)NC(=O)[C@H](CC(C)C)NC(=O)[C@H](CCCCN)NC1=O [BPC590] (cyclo(FKKLQK(Hexanoyl)KLKK))
Result string: 6.2 to 12.5 µM

Query string: Form field: reported MIC Ea of CCCCCC(=O)NCCCC[C@@H]1NC(=O)[C@H](Cc2ccccc2)NC(=O)[C@H](CCCCN)NC(=O)[C@H](CCCCN)NC(=O)[C@H](CC(C)C)NC(=O)[C@H](CCCCN)NC(=O)[C@H](CCCCN)NC(=O)[C@H](CCC(N)=O)NC(=O)[C@H](CC(C)C)NC(=O)[C@H](CCCCN)NC1=O [BPC584, c(KKLKKFK(CO-nC5H11)KLQ)] (cyclo(FK(Hexanoyl)KLQKKLKK))
Result string: 25 to 50 µM

Further cases:
Query string: Param item = CCCCCC(=O)NCCCC[C@@H]1NC(=O)[C@H](CCCCN)NC(=O)[C@H](CCC(N)=O)NC(=O)[C@H](CC(C)C)NC(=O)[C@H](CCCCN)NC(=O)[C@H](CCCCN)NC(=O)[C@H](Cc2ccccc2)NC(=O)[C@H](CCCCN)NC(=O)[C@H](CCCCN)NC(=O)[C@H](CC(C)C)NC1=O [BPC588] (cyclo(FKKLQKK(Hexanoyl)LKK)) ; retrieve measured MIC Ea.
Result string: 12.5 to 25 µM

Query string: I'd like to know its MIC Ea. The compound in question is CCCC(=O)N[C@@H](CCCCN)C(=O)N[C@@H](CC(C)C)C(=O)NCCCC[C@@H]1NC(=O)[C@H](CCCCN)NC(=O)[C@H](CC(C)C)NC(=O)[C@H](CCCCN)NC(=O)[C@H](CCCCN)NC(=O)[C@H](CCC(N)=O)NC(=O)[C@H](CC(C)C)NC(=O)[C@H](CCCCN)NC(=O)[C@H](CCCCN)NC(=O)[C@@H](Cc2ccccc2)NC1=O [BPC726, c(KKLKK(LK-CO-C3H7)fKKLQ)] (cyclo(KKLKK([Leu-Lys-Butyryl])[dF]KKLQ))
Result string: 25 to 50 µM

Query string: For the compound CC(C)CCC(=O)NCCCC[C@H]1NC(=O)[C@H](CCCCN)NC(=O)[C@H](CC(C)C)NC(=O)[C@H](CCCCN)NC(=O)[C@H](CCCCN)NC(=O)[C@H](CCC(N)=O)NC(=O)[C@H](CC(C)C)NC(=O)[C@H](CCCCN)NC(=O)[C@H](CCCCN)NC(=O)[C@H](Cc2ccccc2)NC1=O [BPC630, c(KKLKk(CO-isoC5H11)FKKLQ)] (cyclo(FKKLQKKLK[dK](Pentanoyl(4-Me)))) , what MIC Ea is on record?
Result string: 25 to 50 µM

----------
Below, each of the compounds is paired with its reported MIC Ea value.
# System: Erwinia amylovora PMV6076
# assay explanation: MIC, in vitro growth inhibition
# Assay type: cell-based
# run conditions: TSB, 25°C, 48 h, OD 600 nm; tested at 3.1, 6.2, 12.5, 25, 50 μM; three replicates, experiment repeated twice; MIC = lowest concentration with no growth
# Method: The following plant pathogenic bacterial strains were used: Erwinia amylovora PMV6076 (Institut National de la Recherche Agronomique, Angers, France), Pseudomonas syringae pv. syringae EPS94 (Institut de Tecnologia Agroalimentària, Universitat de Girona, Spain) and Xanthomonas axonopodis pv. vesicatoria 2133–2 (Instituto Valenciano de Investigaciones Agrarias, Valencia, Spain). All bacteria were stored in Luria Bertani (LB) broth supplemented with glycerol (20%) and maintained at -80°C. […]
Where a SMILES comes first, the peptide text is derived from it. [ ]: non-standard residue; d: D form. The star is where a group is joined. Pentanoyl(4-Me) = CC(C)CCC(=O)*; Octanoyl = CCCCCCCC(=O)*; Hexanoyl = CCCCCC(=O)*

See these solved cases before continuing.
Query string: // lookup MIC Ea for CCCCCC(=O)NCCCC[C@H]1NC(=O)[C@H](CCCCN)NC(=O)[C@H](CC(C)C)NC(=O)[C@H](CCCCN)NC(=O)[C@H](CCCCN)NC(=O)[C@H](CCC(N)=O)NC(=O)[C@H](CC(C)C)NC(=O)[C@H](CCCCN)NC(=O)[C@H](CCCCN)NC(=O)[C@@H](Cc2ccccc2)NC1=O [BPC632, c(KKLKk(CO-nC5H11)fKKLQ)] (cyclo(KKLK[dK](Hexanoyl)[dF]KKLQ))
Result string: 25 to 50 µM

Query string: Which measured MIC Ea value corresponds to CCCCCCCC(=O)NCCCC[C@@H]1NC(=O)[C@H](CCCCN)NC(=O)[C@H](CC(C)C)NC(=O)[C@H](CCCCN)NC(=O)[C@H](CCCCN)NC(=O)[C@H](CCC(N)=O)NC(=O)[C@H](CC(C)C)NC(=O)[C@H](CCCCN)NC(=O)[C@H](CCCCN)NC(=O)[C@@H](Cc2ccccc2)NC1=O [BPC668, c(KKLKK(CO-C7H15)fKKLQ)] (cyclo(KKLKK(Octanoyl)[dF]KKLQ)) ?
Result string: 25 to 50 µM

Okay, now this compound:
Query string: Reported MIC Ea for CC(C)CCC(=O)NCCCC[C@@H]1NC(=O)[C@H](CCCCN)NC(=O)[C@H](CC(C)C)NC(=O)[C@H](CCCCN)NC(=O)[C@H](CCCCN)NC(=O)[C@H](CCC(N)=O)NC(=O)[C@H](CC(C)C)NC(=O)[C@H](CCCCN)NC(=O)[C@H](CCCCN)NC(=O)[C@@H](Cc2ccccc2)NC1=O [BPC626, c(KKLKK(CO-isoC5H11)fKKLQ)] (cyclo(KKLKK(Pentanoyl(4-Me))[dF]KKLQ)) : what is it?
Result string: 25 to 50 µM
